Measured fluorescence lifetime values are reported for all entries that follow.
# protocol_summary: solvent given as SMILES
# particulars: in O=P(c1ccccc1)(c1ccccc1)c1ccc2oc3ccc(P(=O)(c4ccccc4)c4ccccc4)cc3c2c1
# value in ns; strip the unit string

c1ccc(-c2nc(-c3ccccc3)nc(-c3cc(-n4c5ccccc5c5ccccc54)c(-n4c5ccccc5c5ncccc54)c(-n4c5ccccc5c5ccccc54)c3)n2)cc1 = 20.4
Cc1ccc2c(c1)C1(c3ccccc3Oc3ccccc31)c1cc(C)ccc1N2c1ccc(-c2ncccn2)cc1 = 11
c1ccc(-c2nc(-c3ccccc3)nc(-c3cc(-n4c5ccccc5c5ccccc54)c(-n4c5ccccc5c5ccccc54)c(-n4c5ccccc5c5ccccc54)c3)n2)cc1 = 13.1
Cc1ccc2c(c1)C(c1ccccc1)(c1ccccc1)c1cc(C)ccc1N2c1cc(C(C)C)c(B2c3ccccc3Sc3ccccc32)c(C(C)C)c1 = 21
c1ccc(-c2nc(-c3ccccc3)nc(-c3cc(-n4c5ccccc5c5ncccc54)cc(-n4c5ccccc5c5ncccc54)c3)n2)cc1 = 6.6

Name the reported fluorescence lifetime value associated with the compound Cc1cc(C)c2c(c1)c1cc(C)cc(C)c1n2-c1ccc2c(c1)Oc1cc3c(cc1B2c1c(C(C)C)cc(C(C)C)cc1C(C)C)B(c1c(C(C)C)cc(C(C)C)cc1C(C)C)c1ccccc1O3
25

Each recorded value in this set is attributed to the Deep4Chem optical property database.
